test: chemical genetic growth profiling, strain panel (AID 1159580);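 also: tested at 20 µM; growth read once vehicle control cultures reached saturation at 30 °C; 1 = growth at the plate median or of vehicle wells; lower values mean less growth of the strain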; conditions: S. cerevisiae deletion strains, growth OD, locus YLR371W, strain rom2, active compounds read low
Among all 5,500 compounds or so, about 2,000 (36%) were called active. Roughly 18% stayed inconclusive and do not appear here. Some of the results follow.
Parameter normalized growth: see the listing below.
readout_label: normalized growth

{"compound": "CCC1(O)CC(OC2CC(N(C)C)C(OC3CC(O)C(OC4CCC(=O)C(C)O4)C(C)O3)C(C)O2)c2c(cc3c(c2O)C(=O)c2c(O)cccc2C3=O)C1C(=O)OC (stereo not given)", "assay_value": 1.01}
{"compound": "CN1C2C[C@H](OC(=O)[C@H](CO)c3ccccc3)C[C@H]1[C@@H](O)C2", "assay_value": 0.989}
{"compound": "COc1ccc(-c2coc3cc(OC)ccc3c2=O)cc1", "assay_value": 0.933}
{"compound": "CC(C)NCC(O)COc1cccc2[nH]ccc12 (stereo not given)", "assay_value": 0.97}
{"compound": "c1ccc2c(c1)CCCC2C1=NCCN1 (stereo not given)", "assay_value": 1.01}
{"compound": "CN1C2CCC1CC(OC(c1ccccc1)c1ccccc1N)C2 (stereo not given)", "assay_value": 1.01}
{"compound": "CN1C2CCC1CC(OC(c1ccccc1)c1ccccc1)C2 (stereo not given)", "assay_value": 0.969}
{"compound": "CC1(C)S[C@@H]2[C@H](NC(=O)[C@H](N)c3ccccc3)C(=O)N2[C@H]1C(=O)O", "assay_value": 1}
{"compound": "c1ccc2c(c1)sc1ccccc12", "assay_value": 0.854}
{"compound": "CC[C@H]1OC(=O)[C@H](C)[C@@H](O[C@H]2C[C@@](C)(OC)[C@@H](O)[C@H](C)O2)[C@H](C)[C@@H](O[C@@H]2O[C@H](C)C[C@H](N(C)C)[C@H]2O)[C@](C)(OC)C[C@@H](C)C(=O)[C@H](C)[C@@H](O)[C@]1(C)O", "assay_value": 0.967}

---

test: chemical genetic growth profiling, strain panel (AID 1159580); details: S. cerevisiae deletion strains, growth OD, locus YAL021C, strain ccr4, active compounds read low
Hit rate of the full screen: of about 5,500 compounds, about 2,000 (36%) were called active. Not shown: some 18% with an inconclusive outcome. Some of the results follow.
Quick reference for normalized growth among some compounds

{"compound": "COc1cc(CNC(=O)CCCC/C=C/C(C)C)ccc1O", "normalized growth": 0.971}
{"compound": "C[C@@H]1CC(Cl)CC[C@H]1C(=O)OC(C)(C)C (stereo partly specified)", "normalized growth": 1.02}
{"compound": "N=c1ccn2c(n1)OC1C(O)C(CO)OC12 (stereo unspecified)", "normalized growth": 1.01}
{"compound": "CCCCCCCCC(=O)NCc1ccc(O)c(OC)c1", "normalized growth": 0.996}
{"compound": "NS(=O)(=O)c1cc2c(cc1Cl)NC=NS2(=O)=O", "normalized growth": 0.984}
{"compound": "C=CCCCCCCCCCCCc1ccco1", "normalized growth": 0.981}

---

test: chemical genetic growth profiling, strain panel (AID 1159580); details: S. cerevisiae deletion strains, growth OD, locus YOR080W, strain dia2, active compounds read low
Screen size: about 5,500 compounds; about 2,000 (36%) were called active. Not shown: some 18% with an inconclusive outcome. The list shows a part of the results.
Param label: returns rule met when normalized growth < 1, returns rule not met otherwise, including exact equality.

{"molecule": "CC[C@@]1(O)C[C@H](O)c2c(cc3c(c2O)C(=O)c2c(O)ccc(O)c2C3=O)[C@H]1C(=O)OC", "class_assignment": "rule met"}
{"molecule": "C=C1CCC2[C@](C)(CO)[C@H](O)CC[C@@]2(C)[C@@H]1C/C=C1/C(=O)OC[C@H]1O (stereo partly drawn)", "class_assignment": "rule met"}
{"molecule": "CC[C@@]1(O)C[C@H](O[C@H]2C[C@H](N(C)C)[C@H](O)[C@H](C)O2)c2c(cc3c(c2O)C(=O)c2c(O)ccc(O)c2C3=O)[C@H]1C(=O)OC", "class_assignment": "rule met"}
{"molecule": "CC[C@@H](C(=O)C(C)[C@@H](O)[C@H](C)CCc1ccc(C)c(O)c1C(=O)O)C1OC(CC)(C2CC[C@](O)(CC)[C@H](C)O2)C[C@@H]1C (stereo partly drawn)", "class_assignment": "rule not met"}
{"molecule": "CCC[C@H](N[C@@H](C)C(=O)N1[C@H](C(=O)O)C[C@@H]2CCCC[C@@H]21)C(=O)OCC", "class_assignment": "rule not met"}
{"molecule": "O=C(O[C@@H]1Cc2c(O)cc(O)cc2O[C@@H]1c1cc(O)c(O)c(O)c1)c1cc(O)c(O)c(O)c1", "class_assignment": "rule met"}

---

experiment: chemical genetic growth profiling, strain panel (AID 1159580); settings: S. cerevisiae deletion strains, growth OD, locus YLR418C, strain cdc73, active compounds read low
About 2,000 (36%) of roughly 5,500 compounds were called active. About 18% were inconclusive and are not listed. The list shows a part of the results.

{"compound": "CC(=O)Oc1cc(OC(C)=O)c2c(c1)O[C@H](c1ccc(OC(C)=O)c(OC(C)=O)c1)[C@H](OC(C)=O)C2", "normalized growth": 1.06}
{"compound": "CN1CC(=O)N=C1N", "normalized growth": 0.98}
{"compound": "C=C1C2CC[C@@]3(C)[C@H](c4ccoc4)OC(=O)C[C@]13O[C@H]1CC(=O)C(C)(C)[C@H](C(OC(C)=O)C(=O)OC)[C@@]21C (some centres undefined)", "normalized growth": 1.01}
{"compound": "Cc1ncc(CNC(=O)N(CCCl)N=O)c(N)n1", "normalized growth": 0.965}

---

test: chemical genetic growth profiling, strain panel (AID 1159580);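 also: tested at 20 µM; growth read once vehicle control cultures reached saturation at 30 °C; 1 = growth at the plate median or of vehicle wells; lower values mean less growth of the strain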; settings: S. cerevisiae deletion strains, growth OD, locus YLR133W, strain CKI1
Out of some 5,500 compounds screened, about 2,000 (36%) were called active. Inconclusive results (about 18%) are left out. No stated cut-off is given here; in the data, active means normalized growth mostly below about 0.91 (no sharp cut-off); inconclusive means no clear call, values can overlap the other calls; inactive means mostly above about 0.92. The list shows a part of the results.
Labels: Yes = active, No = inactive

{"compound": "O=C(ON=C1CCCCC1)c1ccc([N+](=O)[O-])cc1", "class_assignment": "No"}
{"compound": "CCCN(CCC)C(=S)NC(=O)c1cccc([N+](=O)[O-])c1", "class_assignment": "No"}
{"compound": "COc1ccc(C(CC(=O)c2ccccc2)Sc2ccccc2N)cc1OC (stereo unspecified)", "class_assignment": "No"}
{"compound": "CC(=O)c1ccc(Cl)c(NS(=O)(=O)c2cc(Cl)c(Cl)cc2Cl)c1", "class_assignment": "No"}
{"compound": "Cc1cc(C)cc(Sc2ccc3nnc(-c4ccccc4)n3n2)c1", "class_assignment": "No"}
{"compound": "O=[N+]([O-])c1ccc(-c2noc(-c3ccno3)n2)o1", "class_assignment": "Yes"}

---

assay: chemical genetic growth profiling, strain panel (AID 1159580);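 also: tested at 20 µM; growth read once vehicle control cultures reached saturation at 30 °C; 1 = growth at the plate median or of vehicle wells; lower values mean less growth of the strain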; conditions: S. cerevisiae deletion strains, growth OD, locus YLR039C, strain RIC1, active compounds read low
Out of some 5,500 compounds screened, about 2,000 (36%) were called active. Another 18% or so got no clear call; they are omitted. The list shows a part of the results.
Attribute: normalized growth
readout_label: normalized growth

{"compound": "Clc1ccc(C(OCCN2CCCCC2)c2ccccc2)cc1 (stereo not drawn)", "assay_value": 1.26}
{"compound": "Nc1nc(=S)c2[nH]cnc2[nH]1", "assay_value": 1.08}
{"compound": "c1ccc(OCCOc2ccccn2)nc1", "assay_value": 0.999}
{"compound": "O=C1NCC2(CCN(CCc3ccccc3)CC2)O1", "assay_value": 1}
{"compound": "CN1C2CCC1CC(OC(c1ccccc1)c1ccccc1N)C2 (stereo not drawn)", "assay_value": 1.02}
{"compound": "Cc1ccccc1C(OCCN(C)C)c1ccccc1 (stereo not drawn)", "assay_value": 1.14}
{"compound": "CSc1nc(N)n(-c2ccccc2)n1", "assay_value": 1.03}
{"compound": "CCC(C)C(=O)O[C@@H]1C[C@@]2(C)[C@H](c3ccoc3)OC(=O)CC23OC2(C)O[C@]14[C@]1(C)[C@@H](CC(=O)OC)C5(C)CC1(O)[C@](O)(C5OC(=O)C1(C)OC1C)[C@@H](OC(C)=O)[C@]34O2 (stereo partly drawn)", "assay_value": 0.683}

---

assay: chemical genetic growth profiling, strain panel (AID 1159580);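 also: tested at 20 µM; growth read once vehicle control cultures reached saturation at 30 °C; 1 = growth at the plate median or of vehicle wells; lower values mean less growth of the strain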; settings: S. cerevisiae deletion strains, growth OD, locus YDR054C, strain cdc34
Hit rate of the full screen: of about 5,500 compounds, about 2,000 (36%) were called active. Not shown: some 18% with an inconclusive outcome. Cut-off read from the data, not from the text of the source: active = normalized growth mostly below about 0.91 (no sharp cut-off); inconclusive = no clear call, values can overlap the other calls; inactive = mostly above about 0.92. The list shows a part of the results.
Classes used: true = active, false = inactive

{"compound": "N#C/C(=N/Nc1ccccc1)C(=O)c1ccccc1OC(F)(F)F", "class_assignment": "false"}
{"compound": "CC(C)c1ccc(COC(=O)Nc2ccc(CSc3ccc(Cl)cc3)o2)cc1", "class_assignment": "false"}
{"compound": "CC(=O)/C(C#N)=N\\Nc1ccc(F)cc1", "class_assignment": "true"}
{"compound": "Cc1cc(C)cc(Sc2ccc3nnc(-c4ccccc4)n3n2)c1", "class_assignment": "false"}
{"compound": "CCOC(=O)C1C(c2c(F)cccc2Cl)C(C(=O)OCC)C(O)(C(F)(F)F)NC1(O)C(F)(F)F (stereo not given)", "class_assignment": "false"}
